# credit: patent US20180319855A1

Relative intensity at pCa 6.5 values by entry
- Experimental protocol: Ca2+ sensitivity curves of reconstituted photoproteins (L/Lmax vs free Ca2+)
- Format: biochemical
- Applied conditions: CLZ-f; L/Lmax compared to Aeq-wt
I only need the number, thanks.

In: Provide measured Relative intensity at pCa 6.5 value, entry: A179T: apoaequorin mutant, alanine 179 replaced by threonine (SEQ ID NO:11) (protein, mutant aequorin) SKLTSDFDNPRWIGRHKHMFNFLDVNHNGKISLDEMVYKASDIVINNLGATPEQAKRHKDAVEAFFGGAGMKYGVETDWPAYIEGWKKLATDELEKYAKNEPTLIRIWGDALFDIVDKDQNGAITLDEWKAYTKAAGIIQSSEDCEETFRVCDIDESGQLDVDEMTRQHLGFWYTMDPTCEKLYGGAVP
Out: 3.0

Please turn your attention to the following entry.
In: Give me measured Relative intensity at pCa 6.5, please, for this molecule: QD + ND: apoaequorin double mutant Q159D + N121D (SEQ ID NO:13) (protein, mutant aequorin) SKLTSDFDNPRWIGRHKHMFNFLDVNHNGKISLDEMVYKASDIVINNLGATPEQAKRHKDAVEAFFGGAGMKYGVETDWPAYIEGWKKLATDELEKYAKNEPTLIRIWGDALFDIVDKDQDGAITLDEWKAYTKAAGIIQSSEDCEETFRVCDIDESGDLDVDEMTRQHLGFWYTMDPACEKLYGGAVP
Out: 29.0
